For each entry below, report its Ki value.
Target: α3β2 nAChR (Rattus norvegicus, UniProt P04757+P12390)
Sequence (P04757 26-499): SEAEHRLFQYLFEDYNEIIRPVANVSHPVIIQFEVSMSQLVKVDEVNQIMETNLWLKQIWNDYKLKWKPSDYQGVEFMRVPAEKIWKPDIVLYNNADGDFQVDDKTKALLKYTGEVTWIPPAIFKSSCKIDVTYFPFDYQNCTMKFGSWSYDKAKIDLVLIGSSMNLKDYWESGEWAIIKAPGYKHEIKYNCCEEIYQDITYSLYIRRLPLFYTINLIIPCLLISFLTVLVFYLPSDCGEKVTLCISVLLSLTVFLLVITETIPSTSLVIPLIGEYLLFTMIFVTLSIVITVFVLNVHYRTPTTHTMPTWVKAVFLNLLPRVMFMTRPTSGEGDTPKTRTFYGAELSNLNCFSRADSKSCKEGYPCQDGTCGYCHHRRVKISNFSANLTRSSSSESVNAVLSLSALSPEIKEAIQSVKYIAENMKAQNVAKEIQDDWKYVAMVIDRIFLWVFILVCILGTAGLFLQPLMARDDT
Sequence (P12390 25-500): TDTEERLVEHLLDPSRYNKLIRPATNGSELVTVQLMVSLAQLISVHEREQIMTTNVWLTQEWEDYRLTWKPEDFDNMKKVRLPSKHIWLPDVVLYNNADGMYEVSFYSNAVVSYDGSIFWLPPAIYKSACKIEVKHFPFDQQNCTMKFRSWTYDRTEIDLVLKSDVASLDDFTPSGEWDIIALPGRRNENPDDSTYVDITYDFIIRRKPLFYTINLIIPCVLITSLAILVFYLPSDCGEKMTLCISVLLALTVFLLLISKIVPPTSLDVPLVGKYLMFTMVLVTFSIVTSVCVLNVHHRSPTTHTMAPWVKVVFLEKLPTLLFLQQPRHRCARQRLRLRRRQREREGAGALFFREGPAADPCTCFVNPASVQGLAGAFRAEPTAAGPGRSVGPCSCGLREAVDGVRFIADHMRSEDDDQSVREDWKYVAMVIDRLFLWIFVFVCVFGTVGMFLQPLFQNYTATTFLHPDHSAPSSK
Test: Competition binding vs 500 pM [3H]EB, stably transfected HEK cells
Settings: read-out: Ki α3β2; vs 500pM [3H]EB, HEK cells, Mean ± SEM of three

Here are 3 compounds together with their reported answers.
>  <compound>
CN1CCCC1COc1ccccn1 (stereo not shown) [H-11ONM]

>  <Ki>
> 10 µM

$$$$
>  <compound>
c1cc(OC[C@@H]2CCCN2)ccn1 [H-11PNH]

>  <Ki>
> 10 µM

$$$$
>  <compound>
c1cncc(OC[C@@H]2CCCN2)c1 [H-11MNH]

>  <Ki>
0.0013 µM

$$$$

IN: Recorded Ki of c1ccc(OCC2CCCN2)nc1 (stereo not shown) [H-11ONH] , please.
OUT: > 10 µM

---

Biological target: α4β2* nAChRs from rat forebrain tissue (FB) (Rattus norvegicus, UniProt P09483+P12390)
Sequence (P09483 31-630): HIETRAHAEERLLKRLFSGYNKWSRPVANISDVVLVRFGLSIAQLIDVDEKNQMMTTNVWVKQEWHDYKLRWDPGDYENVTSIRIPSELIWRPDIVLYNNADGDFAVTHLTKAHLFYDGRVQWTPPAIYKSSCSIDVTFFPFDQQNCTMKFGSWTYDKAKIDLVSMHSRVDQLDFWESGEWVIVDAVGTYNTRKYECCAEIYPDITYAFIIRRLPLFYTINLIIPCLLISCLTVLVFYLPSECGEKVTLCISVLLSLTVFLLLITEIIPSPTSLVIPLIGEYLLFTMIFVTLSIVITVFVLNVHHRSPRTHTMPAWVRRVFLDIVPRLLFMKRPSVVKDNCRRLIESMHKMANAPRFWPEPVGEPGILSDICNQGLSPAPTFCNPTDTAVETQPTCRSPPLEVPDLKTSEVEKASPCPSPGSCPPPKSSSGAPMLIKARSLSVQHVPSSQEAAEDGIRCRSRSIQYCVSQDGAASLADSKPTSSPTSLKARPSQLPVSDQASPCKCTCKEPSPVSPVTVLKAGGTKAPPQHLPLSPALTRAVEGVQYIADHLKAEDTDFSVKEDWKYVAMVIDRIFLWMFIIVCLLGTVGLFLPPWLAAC
Sequence (P12390 25-500): as the sequence (P12390 25-500) above
Test: biochemical
test_readout: pKi
Numbers only, as −log10 of the molar value.

IN: Recorded pKi of CN1CCC[C@H]1COc1cccnc1 [A-84543, reference compound] , please.
OUT: 8.27

---

Molecular target: α3β4 nAChR (Rattus norvegicus, UniProt P04757+P12392)
Sequence (P12392 21-495): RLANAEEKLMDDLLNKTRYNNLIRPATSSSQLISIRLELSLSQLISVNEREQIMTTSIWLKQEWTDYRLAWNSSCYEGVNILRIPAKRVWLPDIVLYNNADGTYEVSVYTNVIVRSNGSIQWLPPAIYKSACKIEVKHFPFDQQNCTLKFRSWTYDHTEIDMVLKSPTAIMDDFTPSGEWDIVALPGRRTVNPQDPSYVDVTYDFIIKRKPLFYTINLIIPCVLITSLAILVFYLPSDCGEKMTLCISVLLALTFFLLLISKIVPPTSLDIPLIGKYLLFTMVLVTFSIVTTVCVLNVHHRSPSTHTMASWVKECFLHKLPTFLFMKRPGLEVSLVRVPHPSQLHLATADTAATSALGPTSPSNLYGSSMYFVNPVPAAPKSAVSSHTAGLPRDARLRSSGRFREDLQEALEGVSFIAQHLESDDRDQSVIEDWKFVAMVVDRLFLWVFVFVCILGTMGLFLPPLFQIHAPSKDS
Sequence (P04757 26-499): as the sequence (P04757 26-499) above
Test: Competition binding vs 500 pM [3H]EB, stably transfected HEK cells
Conditions: read-out: Ki α3β4; vs 500pM [3H]EB, HEK cells, Mean ± SEM of three
pKi: −log10 of the molar value.
For each entry below, report its pKi value.

>  <molecule>
c1cc(OC[C@@H]2CCCN2)ccn1

>  <pKi>
< 5.00

$$$$
>  <molecule>
CN1CCCC1COc1ccccn1 (stereo not shown)

>  <pKi>
< 5.00

$$$$
>  <molecule>
c1ccc(OCC2CCCN2)nc1 (stereo not shown)

>  <pKi>
< 5.00

$$$$

Now consider a different molecule.
IN: Recorded pKi of c1cncc(OC[C@@H]2CCCN2)c1 [H-11MNH] , please.
OUT: 6.68

---

Target: α7 nAChR (Rattus norvegicus)
Sequence (Q05941 23-502): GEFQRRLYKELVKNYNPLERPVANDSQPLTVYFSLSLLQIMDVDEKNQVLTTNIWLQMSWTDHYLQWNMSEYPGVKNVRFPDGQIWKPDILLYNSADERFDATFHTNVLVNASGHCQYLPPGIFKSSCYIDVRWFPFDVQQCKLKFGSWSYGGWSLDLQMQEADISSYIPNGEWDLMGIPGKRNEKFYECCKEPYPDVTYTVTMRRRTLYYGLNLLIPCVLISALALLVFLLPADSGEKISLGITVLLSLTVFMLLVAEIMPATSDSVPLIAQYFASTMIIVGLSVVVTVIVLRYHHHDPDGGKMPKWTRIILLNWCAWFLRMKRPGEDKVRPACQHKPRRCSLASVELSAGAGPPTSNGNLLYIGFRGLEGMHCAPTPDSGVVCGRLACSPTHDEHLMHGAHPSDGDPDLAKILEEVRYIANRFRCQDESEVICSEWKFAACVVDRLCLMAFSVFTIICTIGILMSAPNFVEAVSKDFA
Experiment: Competition binding vs 500 pM [3H]EB, stably transfected HEK cells
Settings: read-out: Ki α7; vs 500pM [3H]EB, HEK cells, Mean ± SEM of three
pKi: −log10 of the molar value.
test_readout: pKi

Here are 3 molecules together with their reported answers.
>  <molecule>
c1cc(OC[C@@H]2CCCN2)ccn1

>  <pKi>
< 5.00

$$$$
>  <molecule>
c1ccc(OCC2CCCN2)nc1 (stereo not shown)

>  <pKi>
< 5.00

$$$$
>  <molecule>
CN1CCCC1COc1ccccn1 (stereo not shown)

>  <pKi>
< 5.00

$$$$

Now consider a different molecule.
IN: # get_value(readout= pKi, system= α7 nAChR (Rattus norvegicus)) for c1cncc(OC[C@@H]2CCCN2)c1 [H-11MNH]
OUT: 7.19

---

Target: α2β4 nAChR (Rattus norvegicus, UniProt P12389+P12392)
Sequence (P12389 28-511): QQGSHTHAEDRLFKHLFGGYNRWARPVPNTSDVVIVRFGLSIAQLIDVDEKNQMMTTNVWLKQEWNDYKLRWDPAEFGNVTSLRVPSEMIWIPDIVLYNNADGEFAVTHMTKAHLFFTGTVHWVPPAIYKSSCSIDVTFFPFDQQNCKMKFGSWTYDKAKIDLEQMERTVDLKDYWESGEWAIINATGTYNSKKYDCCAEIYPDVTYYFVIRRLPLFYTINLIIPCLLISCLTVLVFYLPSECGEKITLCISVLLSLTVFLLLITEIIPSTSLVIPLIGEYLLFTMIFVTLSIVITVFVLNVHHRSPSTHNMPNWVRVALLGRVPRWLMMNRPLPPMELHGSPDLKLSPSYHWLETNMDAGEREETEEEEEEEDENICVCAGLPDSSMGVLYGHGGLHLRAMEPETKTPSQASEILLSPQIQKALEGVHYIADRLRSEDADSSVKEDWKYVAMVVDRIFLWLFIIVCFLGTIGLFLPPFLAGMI
Sequence (P12392 21-495): as the sequence (P12392 21-495) above
Test: Competition binding vs 500 pM [3H]EB, stably transfected HEK cells
Conditions: read-out: Ki α2β4; vs 500pM [3H]EB, HEK cells, Mean ± SEM of three
test_readout: Ki

Here are 3 compounds together with their reported answers.
>  <compound>
c1ccc(OCC2CCCN2)nc1 (stereo not shown)

>  <val>
> 10 µM

$$$$
>  <compound>
CN1CCCC1COc1ccccn1 (stereo not shown)

>  <val>
> 10 µM

$$$$
>  <compound>
c1cncc(OC[C@@H]2CCCN2)c1 [H-11MNH]

>  <val>
0.076 µM

$$$$

Now consider a different compound.
IN: # get_value(readout= Ki, system= α2β4 nAChR (Rattus norvegicus, UniProt P12389+P12392)) for c1cc(OC[C@@H]2CCCN2)ccn1
OUT: > 10 µM
